B1: RSPH3 (parent)
chain: FIPAKTGKDVATQILEGELFDFDL

# Variants of: B1
# runDescription: protein stability index of a GFP-peptide fusion (GPS, HEK-293T) (PSI 1-6); higher = more stable;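 further: lentivirally expressed fusions sorted by FACS into six bins by GFP to DsRed ratio, PSI derived from sequencing read proportions per bin multiplied by bin number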
# conditionContext: c terminus: a fixed tail appended
Catalogue of protein stability index values
outcomeMeasure: protein stability index

1) L15E :: 2.79
2) Q13C :: 2.9
3) A4E :: 2.51
4) V10F :: 1.9
5) L15W :: 2.75
6) K5Y :: 1.88
7) F22C :: 1.84
8) T6W :: 1.9
9) I14V :: 2.2
10) L15N :: 2
11) D21T :: 3.06
12) F22P :: 1.82
13) E18K :: 2.2
14) D9Q :: 1.68

Origin of measurements: the supplement of paper PMC10567573
